Data provenance is the supplement of paper PMC4466140.

# measurement.target: AgCyk3
# experimental.protocol: SPOT peptide array binding signal intensity (averaged, normalized) (arbitrary units (background-subtracted, floor 0; scale differs between SH3 domains)); higher = stronger binding of the SH3 domain to the peptide
property.measured: SPOT peptide array binding signal intensity
Number only, please.

[
  {
    "binder": "RRRRRPHRIERPLSN",
    "number": 33
  }
]

Enquiry: What value of SPOT peptide array binding signal intensity has been reported for the following binder? SNRRPVPRRPSQPLN
Return: 7.5

Enquiry: What value of SPOT peptide array binding signal intensity has been reported for the following binder? WTQRRGPLVVYAEDN
Return: 0.5
